These measurements were taken from patent US9492497B2.

# Tested on: cancer cells (SBcl-2, WM164)
# condition summary: read-out: IC50 against cancer cells (MTS), 24 h, FIG. 6C
pIC50: −log10 of the molar value. No end group written: not given here.

substance: FWQRRIRRWRRFWQRRIRRWRR-NH2 [DIM-PEP-318]
assayed system: cancer cells (SBcl-2, WM164)
pIC50: > 5.00

----------
# test name: MTS cell proliferation assay, NHDF
# condition summary: human, NHDF (normal human dermal fibroblasts)
No end group written: not given here.
value type: viability at 24 h, 100 μM

substance: PFWRIRIRR-NH2 [PEP-322, PFWRIRIRR-NH2]
result: > 70%
